System: mu receptors
Format: cell-based, guinea pig
Give measured Guinea Pig Ileum Ratio (CTAP) for each item. Keep answers brief.
Give bare numbers.

Sample records with Guinea Pig Ileum Ratio (CTAP):
1) CC(C)C(=O)Oc1ccc2c3c1O[C@H]1[C@@H](OS(=O)(=O)O)C=C[C@H]4[C@@H](C2)N(C)CC[C@@]341 [NIDA # 20,271, 3-O-Isobutyrylmorphine-6-O-sulfate]
1.427
2) CN1CC[C@]23c4c5ccc(O)c4O[C@H]2[C@@H](OS(=O)(=O)O)C=C[C@H]3[C@H]1C5 [NIDA # 20,266, Morphine-6-O-Sulfate]
0.663
3) COc1ccc2c3c1O[C@H]1C(=O)CC[C@@]4(O)[C@@H](C2)N(C)CC[C@]314 [Oxycodone]
0.322
4) CN1CC[C@]23c4c5ccc(OC(=O)c6ccccc6)c4O[C@H]2[C@@H](OS(=O)(=O)O)C=C[C@H]3[C@H]1C5 [NIDA # 20,273, 3-O-Benzoylmorphine-6-O-sulfate]
0.554
5) CN1CC[C@]23c4c5ccc(OC(=O)C(C)(C)C)c4O[C@H]2[C@@H](OS(=O)(=O)O)C=C[C@H]3[C@H]1C5 [NIDA # 20,272, 3-O-Pivaloylmorphine-6-O-sulfate]
0.676
6) CCC(=O)Oc1ccc2c3c1O[C@H]1[C@@H](OS(=O)(=O)O)C=C[C@H]4[C@@H](C2)N(C)CC[C@@]341 [NIDA # 20,270, 3-O-Propionylmorphine-6-O-sulfate]
0.515
7) C[C@@H](NC(=O)[C@@H](N)Cc1ccc(O)cc1)C(=O)NCC(=O)N(C)[C@@H](Cc1ccccc1)C(=O)NCCO [DAMGO, [D-Ala^2,N-Me-Phe^4,Gly-ol^5]-enkephalin]
1.000
8) CC(=O)Oc1ccc2c3c1O[C@H]1[C@@H](OS(=O)(=O)O)C=C[C@H]4[C@@H](C2)N(C)CC[C@@]341 [NIDA # 20,264, 3-O-Acetylmorphine-6-O-sulfate]
0.851

Consider now this further compound.
Please look up its Guinea Pig Ileum Ratio (CTAP): Oc1ccc2c3c1O[C@H]1[C@@H](O)C=C[C@H]4[C@@H](C2)NCC[C@@]341 [Normorphine]
0.500

###

Tested on: mu receptors
Type: cell-based, guinea pig
Outcome: true (1) for Guinea Pig Ileum Ke of CTAP of at least 30; false (0) for anything lower.

Answered examples (2):
1. CC(C)C(=O)Oc1ccc2c3c1O[C@H]1[C@@H](OS(=O)(=O)O)C=C[C@H]4[C@@H](C2)N(C)CC[C@@]341 [NIDA # 20,271, 3-O-Isobutyrylmorphine-6-O-sulfate]
false (0)
2. CCC(=O)Oc1ccc2c3c1O[C@H]1[C@@H](OS(=O)(=O)O)C=C[C@H]4[C@@H](C2)N(C)CC[C@@]341 [NIDA # 20,270, 3-O-Propionylmorphine-6-O-sulfate]
true (1)

Evaluate CN1CC[C@]23c4c5ccc(OC(=O)c6ccccc6)c4O[C@H]2[C@@H](OS(=O)(=O)O)C=C[C@H]3[C@H]1C5 [NIDA # 20,273, 3-O-Benzoylmorphine-6-O-sulfate] : Guinea Pig Ileum Ke of CTAP at minimum 30?
true (1)

###

test.system: delta receptors (Cavia porcellus, UniProt A0A286XTF2)
Construct: The brains were then homogenized in 50 mM Tris HCl, buffer pH 7.7, using a Polytron; from tissue; host or cells: guinea pig brain homogenate (membrane pellet)
Sequence (A0A286XTF2 1-366): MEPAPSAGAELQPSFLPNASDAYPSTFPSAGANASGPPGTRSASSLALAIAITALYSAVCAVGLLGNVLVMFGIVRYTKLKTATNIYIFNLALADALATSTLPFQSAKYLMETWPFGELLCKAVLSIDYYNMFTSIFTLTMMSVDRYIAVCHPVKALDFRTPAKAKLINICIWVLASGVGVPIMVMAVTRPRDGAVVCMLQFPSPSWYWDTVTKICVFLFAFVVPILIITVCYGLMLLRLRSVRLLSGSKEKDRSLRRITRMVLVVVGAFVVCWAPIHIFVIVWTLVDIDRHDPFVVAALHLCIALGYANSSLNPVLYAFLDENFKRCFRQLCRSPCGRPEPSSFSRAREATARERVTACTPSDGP
measurement.protocol: biochemical
Format: binding, guinea pig
Structures can show the parent of a compound that is named as a salt.
Give measured Ki for each item. Keep answers brief.
Give bare numbers, in nM.

1. CN1CC[C@]23c4c5ccc(O)c4O[C@H]2[C@@H](OS(=O)(=O)O)C=C[C@H]3[C@H]1C5 [NIDA # 20,266, Morphine-6-O-Sulfate]
18

# batch: return Ki for each of the 3 molecules below
1. CC(=O)Oc1ccc2c3c1O[C@H]1[C@@H](OS(=O)(=O)[O-])C=C[C@H]4[C@@H](C2)[N+](C)(C)CC[C@@]341 [NIDA # 20,269]
2. CC(=O)Oc1ccc2c3c1O[C@H]1[C@@H](OS(=O)(=O)O)C=C[C@H]4[C@@H](C2)N(C)CC[C@@]341 [NIDA # 20,264, 3-O-Acetylmorphine-6-O-sulfate]
3. Oc1ccc2c3c1O[C@H]1c4[nH]c5c(c4C[C@@]4(O)[C@@H](C2)N(CC2CC2)CC[C@]314)C[C@@]1(O)[C@H]2Cc3ccc(O)c4c3[C@@]1(CCN2CC1CC1)[C@H]5O4 [Nor-BNI (HCl)2, nor-binaltorphimine]

1. 842
2. 308
3. 6.3

# batch: return Ki for each of the 6 molecules below
1. CC(C)C(=O)Oc1ccc2c3c1O[C@H]1[C@@H](OS(=O)(=O)O)C=C[C@H]4[C@@H](C2)N(C)CC[C@@]341 [NIDA # 20,271, 3-O-Isobutyrylmorphine-6-O-sulfate]
2. CN1CC[C@]23c4c5ccc(OC(=O)C(C)(C)C)c4O[C@H]2[C@@H](OS(=O)(=O)O)C=C[C@H]3[C@H]1C5 [NIDA # 20,272, 3-O-Pivaloylmorphine-6-O-sulfate]
3. CCC(=O)Oc1ccc2c3c1O[C@H]1[C@@H](OS(=O)(=O)O)C=C[C@H]4[C@@H](C2)N(C)CC[C@@]341 [NIDA # 20,270, 3-O-Propionylmorphine-6-O-sulfate]
4. CN1CC[C@]23c4c5ccc(OC(=O)c6ccccc6)c4O[C@H]2[C@@H](OS(=O)(=O)O)C=C[C@H]3[C@H]1C5 [NIDA # 20,273, 3-O-Benzoylmorphine-6-O-sulfate]
5. CC(C)C[C@@H](NC(=O)[C@H](Cc1ccccc1)NC(=O)CNC(=O)[C@@H](C)NC(=O)[C@@H](N)Cc1ccc(O)cc1)C(=O)O [DADLE-OH]
6. C=CCN1CC[C@]23c4c5ccc(O)c4O[C@H]2/C(=N/NC(=O)c2ccccc2)CC[C@@]3(O)[C@H]1C5 [NalBzoH, naloxone benzoylhydrazone]

1: 584; 2: 15.2; 3: 40; 4: 600; 5: 0.3; 6: 1.4

###

Test system: κ2 sites
Type: binding, guinea pig
pIC50: −log10 of the molar value. Where a name gives a salt, the structure may show the parent alone.
property.measured: pIC50

Sample records with pIC50:
1) c1ccc(C2(N3CCCCC3)CCCCC2)cc1 [PCP-HCl]
< 5.00
2) CC1(C)SSC(C)(C)[C@@H](NC(=O)[C@@H](N)Cc2ccc(O)cc2)C(=O)NCC(=O)N[C@@H](Cc2ccc(Cl)cc2)C(=O)N[C@H]1C(=O)O
< 5.00
3) C[N+]1(C)CC[C@]23c4c5ccc(OC(=O)c6ccccc6)c4O[C@H]2[C@@H](OS(=O)(=O)[O-])C=C[C@H]3[C@H]1C5
< 5.00
4) C=CCN1CC[C@@]2(C)c3cc(O)ccc3C[C@@H]1[C@@H]2C [(+) SKF 10,047-HCl]
< 5.00

Consider now this further compound.
Please look up its pIC50: `Oc1ccc2c3c1O[C@H]1c4[nH]c5ccccc5c4C[C@@]4(O)[C@@H](C2)N(CC2CC2)CC[C@]314`
6.27
